Target: plasma purified human complement protein C3 (human) (UniProt P01024)
Sequence (P01024 23-667, chain 1 of 2): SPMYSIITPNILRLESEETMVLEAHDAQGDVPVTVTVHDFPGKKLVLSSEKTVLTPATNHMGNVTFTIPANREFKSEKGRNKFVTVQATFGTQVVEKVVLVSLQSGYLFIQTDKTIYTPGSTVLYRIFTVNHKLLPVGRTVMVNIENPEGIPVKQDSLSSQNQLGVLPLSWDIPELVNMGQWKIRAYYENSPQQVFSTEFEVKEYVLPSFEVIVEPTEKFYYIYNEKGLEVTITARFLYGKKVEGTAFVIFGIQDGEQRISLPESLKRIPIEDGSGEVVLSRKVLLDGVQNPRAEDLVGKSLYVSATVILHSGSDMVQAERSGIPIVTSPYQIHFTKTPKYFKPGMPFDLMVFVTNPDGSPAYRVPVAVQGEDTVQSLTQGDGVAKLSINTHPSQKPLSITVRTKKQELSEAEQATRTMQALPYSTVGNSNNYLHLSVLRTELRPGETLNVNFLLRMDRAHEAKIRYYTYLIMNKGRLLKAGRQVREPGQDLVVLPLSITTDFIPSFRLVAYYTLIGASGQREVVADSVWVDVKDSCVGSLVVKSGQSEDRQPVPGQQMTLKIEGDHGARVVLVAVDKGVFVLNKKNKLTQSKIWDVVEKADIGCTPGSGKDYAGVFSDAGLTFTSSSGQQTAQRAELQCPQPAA
Sequence (P01024 672-1663, chain 2 of 2): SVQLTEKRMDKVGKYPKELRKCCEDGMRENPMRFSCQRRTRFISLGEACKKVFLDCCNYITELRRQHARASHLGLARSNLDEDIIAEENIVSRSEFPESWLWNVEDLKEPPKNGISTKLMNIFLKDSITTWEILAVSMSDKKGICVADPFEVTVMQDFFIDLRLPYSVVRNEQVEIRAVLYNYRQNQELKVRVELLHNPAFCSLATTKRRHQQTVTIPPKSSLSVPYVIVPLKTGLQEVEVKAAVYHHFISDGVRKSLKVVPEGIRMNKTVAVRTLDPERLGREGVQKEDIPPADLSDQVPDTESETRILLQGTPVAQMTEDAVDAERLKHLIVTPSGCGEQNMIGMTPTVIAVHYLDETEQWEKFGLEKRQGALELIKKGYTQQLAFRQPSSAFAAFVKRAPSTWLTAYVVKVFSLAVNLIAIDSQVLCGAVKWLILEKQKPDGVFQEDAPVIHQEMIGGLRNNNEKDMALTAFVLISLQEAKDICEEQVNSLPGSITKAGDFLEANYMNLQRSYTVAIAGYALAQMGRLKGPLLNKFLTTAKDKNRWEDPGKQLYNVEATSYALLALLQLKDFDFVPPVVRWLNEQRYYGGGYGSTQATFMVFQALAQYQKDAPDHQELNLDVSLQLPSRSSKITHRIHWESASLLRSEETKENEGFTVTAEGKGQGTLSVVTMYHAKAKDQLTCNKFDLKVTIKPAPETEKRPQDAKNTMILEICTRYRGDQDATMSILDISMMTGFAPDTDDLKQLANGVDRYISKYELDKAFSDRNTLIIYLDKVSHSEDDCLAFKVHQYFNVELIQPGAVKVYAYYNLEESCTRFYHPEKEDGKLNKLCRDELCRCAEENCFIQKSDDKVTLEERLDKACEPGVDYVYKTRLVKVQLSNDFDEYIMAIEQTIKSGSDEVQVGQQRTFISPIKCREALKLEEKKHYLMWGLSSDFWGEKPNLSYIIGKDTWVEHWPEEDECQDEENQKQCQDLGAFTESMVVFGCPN
Assay: cell-based or functional assay
# note: exactly 30 nM is not below, so it is Not fulfilled; use Fulfilled for EC50 hC3 cleavage strictly under it

INSERT INTO assay_data (binder, qualitative_label) VALUES
  ('MTSP-1 protease domain I41D/F99L/C122S/I136M/G151N/Q192T/D217L/K224R (enzyme) VVGGTDADEGEWPWQVSLHALGQGHDCGASLISPNWLVSAAHCYIDDRGFRYSDPTQWTAFLGLHDQSQRSAPGVQERRLKRIISHPFFNDFTLDYDIALLELEKPAEYSSMVRPISLPDASHVFPAGKAMWVTGWGHTQYGGTNALILQKGEIRVINQTTCENLLPQQITPRMMCVGFLSGGVDSCTGDSGGPLSSVEADGRIFQAGVVSWGLGCAQRNRPGVYTRLPLFRDWIKENTGV', 'Not fulfilled'),
  ('MTSP-1 protease domain Q38W/I41S/D96R/ins97aA/C122S/G151N/Q192A (enzyme) VVGGTDADEGEWPWQVSLHALGWGHSCGASLISPNWLVSAAHCYIDDRGFRYSDPTQWTAFLGLHDQSQRSAPGVQERRLKRIISHPFFNRFATFDYDIALLELEKPAEYSSMVRPISLPDASHVFPAGKAIWVTGWGHTQYGGTNALILQKGEIRVINQTTCENLLPQQITPRMMCVGFLSGGVDSCAGDSGGPLSSVEADGRIFQAGVVSWGDGCAQRNKPGVYTRLPLFRDWIKENTGV', 'Fulfilled'),
  ('MTSP-1 protease domain I41G/Y60gW/F99L/C122S/Q175R/Q192S (enzyme) VVGGTDADEGEWPWQVSLHALGQGHGCGASLISPNWLVSAAHCYIDDRGFRWSDPTQWTAFLGLHDQSQRSAPGVQERRLKRIISHPFFNDFTLDYDIALLELEKPAEYSSMVRPISLPDASHVFPAGKAIWVTGWGHTQYGGTGALILQKGEIRVINQTTCENLLPQRITPRMMCVGFLSGGVDSCSGDSGGPLSSVEADGRIFQAGVVSWGDGCAQRNKPGVYTRLPLFRDWIKENTGV', 'Fulfilled'),
  ('MTSP-1 protease domain Q38H/I41S/D60bT/F60eS/Y60gW/D96F/F97D/ins97aE/T98S/F99L/C122S/G151H/Q175L/Q192A (enzyme) VVGGTDADEGEWPWQVSLHALGHGHSCGASLISPNWLVSAAHCYIDTRGSRWSDPTQWTAFLGLHDQSQRSAPGVQERRLKRIISHPFFNFDESLDYDIALLELEKPAEYSSMVRPISLPDASHVFPAGKAIWVTGWGHTQYGGTHALILQKGEIRVINQTTCENLLPQLITPRMMCVGFLSGGVDSCAGDSGGPLSSVEADGRIFQAGVVSWGDGCAQRNKPGVYTRLPLFRDWIKENTGV', 'Fulfilled'),
  ('MTSP-1 protease domain Q38K/I41S/Y60gW/F99L/C122S/G151N/Q192G (enzyme) VVGGTDADEGEWPWQVSLHALGKGHSCGASLISPNWLVSAAHCYIDDRGFRWSDPTQWTAFLGLHDQSQRSAPGVQERRLKRIISHPFFNDFTLDYDIALLELEKPAEYSSMVRPISLPDASHVFPAGKAIWVTGWGHTQYGGTNALILQKGEIRVINQTTCENLLPQQITPRMMCVGFLSGGVDSCGGDSGGPLSSVEADGRIFQAGVVSWGDGCAQRNKPGVYTRLPLFRDWIKENTGV', 'Not fulfilled');
